tested on: A498 renal; assay: NCI-60 one-dose screen, 48 h (100 = growth as untreated, 0 = no growth, -100 = all killed); settings: 10 µM unless noted
This is part of a sample that, as a whole, favours compounds with a hit. Of some 83,000 tested, about 20% had one in any assay.
Property name: growth (%)
Answer in %, number only, no unit symbol.

Worked examples, 2 compounds total:
What is its growth for A498 renal? Entry: O=[N+]([O-])c1cc2c(cc1Br)C1C(C3C2C(Cl)(Cl)C(Cl)=C(Cl)C3(Cl)Cl)C(Cl)(Cl)C(Cl)=C(Cl)C1(Cl)Cl (stereo not drawn)
111

Try `c1ccc2cc(Cn3c(-c4ccc5ccccc5c4)[n+](Cc4ccc5ccccc5c4)c4ccccc43)ccc2c1` next.
-64

Moving on to the next compound.
Checklist item: growth tested on A498 renal, entry `COc1ccc(-c2[nH]ncc2Nc2cc(OC)c(OC)c(OC)c2)cc1` , value?
48.7
